biological target: STAT6 (Homo sapiens, UniProt P42226); construct: stably transfected HaCaT keratinocyte cell line, which expresses NanoLuc luciferase reporter gene under the transcriptional control of the STAT6 responsive promoter; endogenous in cells; host or cells: HaCaT keratinocyte reporter cell line (stably transfected with a NanoLuc reporter); assay: STAT6 Reporter Luciferase Assay (IL-13 stimulated HaCaT keratinocyte NanoLuc reporter cells); type: cell-based; conditions: IL-13 stimulated HaCaT STAT6 NanoLuc reporter cells; read-out: Reporter EC50
Sequence (P42226 whole entry): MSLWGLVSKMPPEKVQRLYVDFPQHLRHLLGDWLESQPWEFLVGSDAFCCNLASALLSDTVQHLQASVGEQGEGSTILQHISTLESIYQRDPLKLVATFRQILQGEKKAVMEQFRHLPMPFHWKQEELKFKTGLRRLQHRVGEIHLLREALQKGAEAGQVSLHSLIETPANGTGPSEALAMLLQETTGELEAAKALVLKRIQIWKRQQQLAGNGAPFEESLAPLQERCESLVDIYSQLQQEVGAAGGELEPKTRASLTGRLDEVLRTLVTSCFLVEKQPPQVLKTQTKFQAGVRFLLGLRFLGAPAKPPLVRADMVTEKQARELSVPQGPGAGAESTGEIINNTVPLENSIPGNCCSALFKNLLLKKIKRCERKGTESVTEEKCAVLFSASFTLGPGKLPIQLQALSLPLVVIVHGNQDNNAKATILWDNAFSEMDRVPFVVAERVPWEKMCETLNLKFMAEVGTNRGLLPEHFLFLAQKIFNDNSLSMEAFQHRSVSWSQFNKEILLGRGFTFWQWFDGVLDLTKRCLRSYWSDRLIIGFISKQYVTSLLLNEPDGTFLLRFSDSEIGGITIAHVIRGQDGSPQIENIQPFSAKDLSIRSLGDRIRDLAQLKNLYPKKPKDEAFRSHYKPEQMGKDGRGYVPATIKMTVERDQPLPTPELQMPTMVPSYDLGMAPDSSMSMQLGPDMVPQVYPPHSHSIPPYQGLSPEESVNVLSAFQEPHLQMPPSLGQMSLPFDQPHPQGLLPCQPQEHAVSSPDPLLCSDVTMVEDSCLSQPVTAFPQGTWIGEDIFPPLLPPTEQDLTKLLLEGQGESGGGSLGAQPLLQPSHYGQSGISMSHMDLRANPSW
pEC50: −log10 of the molar value.
Listed here are compounds together with their documented pEC50.
REPORTED_ENDPOINT: pEC50

compound=CC(C)n1nc(C(=O)NCc2ccc(NC(=O)N(C)C)cc2)c2c1CCN(c1ccc(C(=O)N3CC(C)(O)C3)cn1)C2 endpoint_value=6.71
compound=CC(C)n1nc(C(=O)NCc2ccc(NC(=O)N3CCN(C)[C@@H](C)C3)c(F)c2)c2c1[C@@H](C)CN(c1ccc(C(=O)N(C)C)cc1)C2 endpoint_value=8.70
compound=CC(C)n1nc(C(=O)NCc2ccc(NC(=O)N3CC(N(C)C)C3)cc2)c2c1[C@@H](C)CN(c1ccc(C(=O)N(C)C)cc1)C2 endpoint_value=9.00
compound=CC(C)n1nc(C(=O)NCc2ccc(NC(=O)N3CCC(C)(C#N)CC3)cc2)c2c1[C@@H](C)CN(c1ccc(C(=O)N(C)C)cn1)C2 endpoint_value=9.00
compound=CC(C)n1nc(C(=O)NCc2ccc(NC(=O)N3CC(C)(N(C)C)C3)cc2)c2c1[C@@H](C)CN(c1ccc(C(=O)N(C)C)cc1)C2 endpoint_value=9.00
compound=CC(C)n1nc(C(=O)NCc2ccc(NC(=O)NC3(C)CNC3)c(F)c2)c2c1[C@@H](C)CN(c1ccc(C(=O)N(C)C)cc1)C2 endpoint_value=8.70
compound=CC(C)n1nc(C(=O)NCc2ccc(NC(=O)N3CC4(CCN(C)CC4)C3)c(F)c2)c2c1[C@@H](C)CN(c1ccc(C(=O)N(C)C)cn1)C2 endpoint_value=9.00
compound=CC(C)Cn1nc(C(=O)NCc2ccc(NC(=O)N(C)C)cc2)c2c1CCN(c1ccc(C(=O)N(C)C)cn1)C2 endpoint_value=8.05
compound=CN(C)C(=O)Nc1ccc(CNC(=O)c2nn(C)c3c2CN(c2ccc(C(=O)N(C)C)cn2)C2(CC2)C3)cc1 endpoint_value=5.98
compound=CC(C)n1nc(C(=O)NCc2ccc(NC(=O)N(C)C)cc2)c2c1[C@@H](C)CN(c1ccc(C(=O)N3CCN(C)CC3)cc1)C2 endpoint_value=7.57
compound="CC(CC#N)n1nc(C(=O)NCc2ccc(NC(=O)N(C)C)cc2)c2c1CCN(c1ccc(C(=O)N(C)C)cn1)C2 (single isomer, unassigned) [Example 348]" endpoint_value=7.37
compound=CCn1nc(C(=O)NCc2ccc(NC(=O)N(C)C)cc2)c2c1CCN(c1ccc(C(=O)N(C)C)cn1)[C@@H]2C endpoint_value=8.52
compound=CC(C)n1nc(C(=O)NCc2ccc(NC(=O)N3CC(C)(O)C3)cc2)c2c1CCN(c1ccc(C(=O)N(C)C)cn1)C2 endpoint_value=7.62

* * *

molecular target: STAT6 (Homo sapiens, UniProt P42226); construct: stably transfected HaCaT keratinocyte cell line, which expresses NanoLuc luciferase reporter gene under the transcriptional control of the STAT6 responsive promoter; endogenous in cells; host or cells: HaCaT keratinocyte reporter cell line (stably transfected with a NanoLuc reporter); assay: STAT6 Reporter Luciferase Assay (IL-13 stimulated HaCaT keratinocyte NanoLuc reporter cells); format: cell-based; conditions: IL-13 stimulated HaCaT STAT6 NanoLuc reporter cells; read-out: Reporter EC50
pEC50: −log10 of the molar value.
REPORTED_ENDPOINT: pEC50

compound=CC(C)n1nc(C(=O)NCc2ccc(NC(=O)N3CCC4(CCCNC4)CC3)cc2)c2c1[C@@H](C)CN(c1ccc(C(=O)N(C)C)cc1)C2 endpoint_value=8.40
compound=CC(C)n1nc(C(=O)NCc2ccc(NC(=O)N3CCN4CCC[C@H]4C3)cc2)c2c1[C@@H](C)CN(c1ccc(C(=O)N(C)C)cc1)C2 endpoint_value=9.00
compound="CCn1nc(C(=O)NCc2ccc(NC(=O)N(C)C)cc2)c2c1[C@@H](C)[C@H](C)N(c1ccc(C(=O)N(C)C)cn1)C2 (single isomer, unassigned)" endpoint_value=9.52
compound=Cc1csc(-c2ccc(CNC(=O)c3nn(C(C)C)c4c3CN(c3ccc(C(=O)N(C)C)cc3)C[C@@H]4C)cc2)n1 endpoint_value=6.17
compound="CCC1Cc2c(c(C(=O)NCc3ccc(NC(=O)N(C)C)cc3)nn2C)CN1c1ccc(C(=O)N(C)C)cn1 (racemic) [Example 260]" endpoint_value=8.00
compound=CC(C)n1nc(C(=O)NCc2ccc(NC(=O)N(C)C)cc2)c2c1CCN(c1ccc(C(=O)N3CCC[C@H]3C(N)=O)cn1)C2 endpoint_value=6.71
compound=CCn1nc(C(=O)NCc2ccc(C(N)=O)cc2)c2c1[C@@H](C)CN(c1ncc(N3CCCC3=O)cn1)C2 endpoint_value=7.48
compound=Cc1cc(C)c2c(n1)CN(C(=O)c1ccc(N3CCc4c(c(C(=O)NCc5ccc(NC(=O)N(C)C)cc5)nn4C(C)C)C3)nc1)C2 endpoint_value=8.30
compound=CC(C)n1nc(C(=O)NCc2ccc(NC(=O)N3CCN(C)CC3)cc2F)c2c1[C@@H](C)CN(c1ccc(C(=O)N(C)C)cc1)C2 endpoint_value=9.00
compound=CC(C)n1nc(C(=O)NCc2ccc(NC(=O)N(C)C)cn2)c2c1[C@@H](C)CN(c1ccc(C(=O)N(C)C)cn1)C2 endpoint_value=8.70
compound=CCOC(=O)Nc1ccc(CNC(=O)c2nn(C(C)C)c3c2CN(c2ncc(C(=O)N(C)C)cn2)C[C@@H]3C)cc1 endpoint_value=9.00
compound=COC[C@H]1CCCN1C(=O)c1ccc(N2CCc3c(c(C(=O)NCc4ccc(NC(=O)N(C)C)cc4)nn3C(C)C)C2)nc1 endpoint_value=6.19
compound="C[C@@H]1CN(c2ccc(C(=O)N(C)C)cn2)Cc2c(C(=O)NCc3ccc(NC(=O)N(C)C)cc3)nn(C3(C)CC3)c21 (single isomer, unassigned)" endpoint_value=7.92

The reported numbers originate from patent US20250320213A1.
